Recorded koff for the following binders
# experimental target: T1, human soluble IL-6R, recombinant (human, UniProt P08887 20-358)
# T1 construct: also called human IL6-R; bio-IL-6R
# T1 sequence (looked up): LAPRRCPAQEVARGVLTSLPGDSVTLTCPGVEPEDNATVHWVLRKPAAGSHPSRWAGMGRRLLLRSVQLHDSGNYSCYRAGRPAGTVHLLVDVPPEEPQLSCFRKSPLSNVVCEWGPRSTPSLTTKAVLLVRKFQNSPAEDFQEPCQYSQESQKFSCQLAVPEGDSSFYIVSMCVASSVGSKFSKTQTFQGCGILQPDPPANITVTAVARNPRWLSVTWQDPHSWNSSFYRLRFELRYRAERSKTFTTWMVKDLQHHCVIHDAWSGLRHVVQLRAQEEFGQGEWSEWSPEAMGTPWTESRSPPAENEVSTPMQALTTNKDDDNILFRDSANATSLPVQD
# experimental details: Biacore, periplasmic extract

{"binder": "IL6RPMP107A9 (VHH, family 21; also called IL6R107A9) VHH: EVQLVESGGGLVQAGGSLRLSCAASGGIFSDMFMGWFRQAPGKSRESVARISPSGNTFYQDSVRGRFTISTDNAKNTVYLQMNNLKPEDTAVYYCAANVGVTGSYEYWGQGTQVTVSS", "koff": "0.01 s⁻¹"}
{"binder": "IL6RPMP104E7 (VHH, family 18; periplasmic extract; also called PMP104E07) VHH: EVQLVESGGGLVQAGGSLRLSCAAGGSIFSINAMGWYRQAPGKQRELVASITSGGSTTYADSVKGRFTISRDNAKDTVYLQMNSLKPEDTAVYYCNAHIRFPFPNDYWGQGTQVTVSS", "koff": "0.001 s⁻¹"}
{"binder": "IL6RPMP103H9 (VHH, family 13; also called PMP103H09; IL6R103H9) VHH: EVQLVESGGGLVQPGGSLRLSCAASKSIFDINAMYWHRQAPGKQRESVASITSGGMRNYADSVKDRFTISKDNAKNTVYLQMNGLKPDDTAVYYCGLGRYEGGVWRDYWGQGTQVTVSS", "koff": "0.01 s⁻¹"}
{"binder": "IL6RPMP103C4 (VHH, family 19; also called IL6R103C4) VHH: EVQLVESGGGLVEAGGSLRLSCAAAGRTLSSYSMAWFRQAPGKEREFVAIIRGNPSRTYHSDSVKGRFTASRDNAKNTVYLQMNRLEPEDTAVYYCAADPPPFASDYSAPQSYDYWGQGTQVTVSS", "koff": "0.001 s⁻¹"}
{"binder": "IL6RPMP100G11 (VHH, family 4; also called IL6R100G11) VHH: EVQLVESGGGLVQAGGSLRLSCAASGRGFSPYTMGWFRQAPGKERVFVAGISWSTGIAHYTDSVKGRFTISRDNAKNTGSLQMNSLKPEDTAVYYCAVVQTTKGNYDYWGQGTQVTVSS", "koff": "0.00027 s⁻¹"}
{"binder": "IL6RPMP106B2 (VHH, family 6; periplasmic extract) VHH: EVQLVESGGGLVQAGGSLRLSCAASGSIFRINAMGWYRQAPGKQRELVAAAISGGSTNYADFVKGRFTISRDNAKNTVYLQMNSLKPEDTAVYYCNALVVSHNYSDYVPFPDDYWGQGTQVTVSS", "koff": "0.01 s⁻¹"}

The measurements presented in this section are drawn from patent US20120171209A1.
